// data source = patent US10759787B2

- Assay target: EZH2-A677G (Homo sapiens (Human), UniProt Q15910, A677G)
- Sequence (Q15910 whole entry A677G): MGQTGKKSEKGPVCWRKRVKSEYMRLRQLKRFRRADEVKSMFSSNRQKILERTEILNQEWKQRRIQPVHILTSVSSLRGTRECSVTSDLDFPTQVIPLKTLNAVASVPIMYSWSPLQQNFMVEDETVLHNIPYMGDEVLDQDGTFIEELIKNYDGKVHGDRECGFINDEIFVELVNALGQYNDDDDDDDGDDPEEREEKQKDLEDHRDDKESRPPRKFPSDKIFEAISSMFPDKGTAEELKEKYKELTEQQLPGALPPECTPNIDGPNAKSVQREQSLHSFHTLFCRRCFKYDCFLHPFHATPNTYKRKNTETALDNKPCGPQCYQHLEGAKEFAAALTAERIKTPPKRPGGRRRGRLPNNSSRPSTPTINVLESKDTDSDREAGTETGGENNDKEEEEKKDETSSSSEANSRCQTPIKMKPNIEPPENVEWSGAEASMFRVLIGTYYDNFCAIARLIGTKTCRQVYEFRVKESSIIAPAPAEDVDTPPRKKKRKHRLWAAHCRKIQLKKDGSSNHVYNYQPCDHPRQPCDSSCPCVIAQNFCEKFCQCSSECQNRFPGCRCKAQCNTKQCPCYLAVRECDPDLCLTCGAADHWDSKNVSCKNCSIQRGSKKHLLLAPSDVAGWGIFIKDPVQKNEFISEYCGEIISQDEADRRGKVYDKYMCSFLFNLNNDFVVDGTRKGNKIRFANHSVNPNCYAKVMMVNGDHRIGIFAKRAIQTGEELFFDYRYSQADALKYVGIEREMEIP
- Sequence (O75530 whole entry partner): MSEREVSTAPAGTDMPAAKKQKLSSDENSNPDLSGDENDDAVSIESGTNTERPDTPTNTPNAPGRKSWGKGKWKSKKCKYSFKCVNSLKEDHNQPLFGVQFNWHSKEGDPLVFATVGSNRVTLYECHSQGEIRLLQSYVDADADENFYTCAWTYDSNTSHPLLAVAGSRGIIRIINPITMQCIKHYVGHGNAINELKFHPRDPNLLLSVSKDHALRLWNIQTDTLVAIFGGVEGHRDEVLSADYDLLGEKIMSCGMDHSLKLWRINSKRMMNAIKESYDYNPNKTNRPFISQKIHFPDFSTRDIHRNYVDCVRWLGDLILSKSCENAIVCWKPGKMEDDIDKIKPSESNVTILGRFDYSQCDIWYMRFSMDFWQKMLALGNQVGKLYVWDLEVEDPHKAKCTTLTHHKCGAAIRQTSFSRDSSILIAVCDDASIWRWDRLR
- Sequence (Q15022 whole entry partner): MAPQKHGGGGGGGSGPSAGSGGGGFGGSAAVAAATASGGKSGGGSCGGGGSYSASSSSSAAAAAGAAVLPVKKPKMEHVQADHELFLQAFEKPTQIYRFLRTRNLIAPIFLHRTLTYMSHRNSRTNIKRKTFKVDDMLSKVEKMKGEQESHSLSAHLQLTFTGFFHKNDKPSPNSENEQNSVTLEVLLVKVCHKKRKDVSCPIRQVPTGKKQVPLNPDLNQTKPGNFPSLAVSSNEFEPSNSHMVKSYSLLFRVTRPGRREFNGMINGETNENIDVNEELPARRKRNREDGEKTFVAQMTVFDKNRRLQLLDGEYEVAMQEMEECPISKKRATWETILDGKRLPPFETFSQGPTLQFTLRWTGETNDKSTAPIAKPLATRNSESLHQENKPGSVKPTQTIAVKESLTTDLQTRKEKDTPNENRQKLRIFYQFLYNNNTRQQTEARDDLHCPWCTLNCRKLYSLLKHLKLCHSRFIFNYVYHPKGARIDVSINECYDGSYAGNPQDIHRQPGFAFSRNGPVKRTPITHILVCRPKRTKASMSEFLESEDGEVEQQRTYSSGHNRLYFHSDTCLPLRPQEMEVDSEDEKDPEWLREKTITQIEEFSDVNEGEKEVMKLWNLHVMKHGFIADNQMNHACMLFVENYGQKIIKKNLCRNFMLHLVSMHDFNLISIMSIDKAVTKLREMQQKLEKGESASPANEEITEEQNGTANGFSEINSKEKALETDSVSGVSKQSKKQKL
- Sequence (Q09028 whole entry partner): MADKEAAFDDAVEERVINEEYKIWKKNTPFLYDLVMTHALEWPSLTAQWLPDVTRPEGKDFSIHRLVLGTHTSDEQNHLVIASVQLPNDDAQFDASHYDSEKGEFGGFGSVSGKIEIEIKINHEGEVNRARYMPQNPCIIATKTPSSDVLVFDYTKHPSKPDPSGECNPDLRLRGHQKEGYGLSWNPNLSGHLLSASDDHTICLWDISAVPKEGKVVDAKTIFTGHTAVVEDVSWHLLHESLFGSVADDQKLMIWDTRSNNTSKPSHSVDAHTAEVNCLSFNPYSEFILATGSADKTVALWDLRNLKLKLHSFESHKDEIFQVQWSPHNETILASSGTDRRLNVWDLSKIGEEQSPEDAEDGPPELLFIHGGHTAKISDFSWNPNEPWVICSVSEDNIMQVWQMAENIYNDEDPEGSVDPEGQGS
- Sequence (Q6ZN18 whole entry partner): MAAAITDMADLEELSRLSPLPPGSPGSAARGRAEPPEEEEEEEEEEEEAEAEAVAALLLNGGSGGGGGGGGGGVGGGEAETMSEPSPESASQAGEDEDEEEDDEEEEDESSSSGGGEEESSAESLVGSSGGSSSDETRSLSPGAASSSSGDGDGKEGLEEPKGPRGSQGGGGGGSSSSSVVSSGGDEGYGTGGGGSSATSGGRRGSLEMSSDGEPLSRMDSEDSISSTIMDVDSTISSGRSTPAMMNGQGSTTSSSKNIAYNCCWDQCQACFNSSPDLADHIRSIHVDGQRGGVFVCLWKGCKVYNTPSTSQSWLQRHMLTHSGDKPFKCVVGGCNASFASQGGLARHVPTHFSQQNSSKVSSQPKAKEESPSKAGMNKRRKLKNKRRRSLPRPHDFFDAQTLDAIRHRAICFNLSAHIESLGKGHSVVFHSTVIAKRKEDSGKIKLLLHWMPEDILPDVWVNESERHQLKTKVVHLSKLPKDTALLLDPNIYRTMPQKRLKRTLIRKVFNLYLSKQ
- Test description: EZH2-A677G mutant enzyme activity assay (HTRF)
- Settings: read-out: IC50 for inhibiting the activity of enzyme EZH2-A677G
Can you tell me IC50 for the items I'm about to list?
Give a bare numeral; the unit nM is implied.

Reported IC50 (EZH2-A677G (Homo sapiens (Human), UniProt Q15910, A677G)) for entry CCc1c(N(CC)C2CCOCC2)cc2oc(CN3CCOCC3)cc2c1C(=O)NCc1c(OC)cc(C)[nH]c1=O [Example 6] is 7.8

Reading of IC50 for CCN(c1cc2oc(C(F)(F)F)cc2c(C(=O)NCc2c(OC)cc(C)[nH]c2=O)c1C)C1CCOCC1 [Example 29] with EZH2-A677G (Homo sapiens (Human), UniProt Q15910, A677G): 2.7

Observed IC50, EZH2-A677G (Homo sapiens (Human), UniProt Q15910, A677G), CCN(c1cc2occc2c(C(=O)NCc2c(OC)cc(C)[nH]c2=O)c1C)C1CCN(S(C)(=O)=O)CC1 [Example 25] : 0.9

Summary: COc1cc(C)[nH]c(=O)c1CNC(=O)c1c(C)c(N(C)C2CCOCC2)cc2occc12 [Example 23] , EZH2-A677G (Homo sapiens (Human), UniProt Q15910, A677G), IC50 = 4.8

Item CCc1c(N(CC)C2CCOCC2)cc2oc(CN3CCCCC3)cc2c1C(=O)NCc1c(OC)cc(C)[nH]c1=O [Example 1] was tested on EZH2-A677G (Homo sapiens (Human), UniProt Q15910, A677G); the reported IC50 is 6.4

Sample CCc1c(N(CC)C2CCOCC2)cc2oc(C3CCCC3)cc2c1C(=O)NCc1c(C)cc(C)[nH]c1=O [Example 14] , system: EZH2-A677G (Homo sapiens (Human), UniProt Q15910, A677G). Its IC50 is 9.6

The recorded IC50 with EZH2-A677G (Homo sapiens (Human), UniProt Q15910, A677G) for CCc1c(N(CC)C2CCOCC2)cc2oc(CN3CCN(C)CC3)cc2c1C(=O)NCc1c(OC)cc(C)[nH]c1=O [Example 12] was 10

Form field IC50 for item CCN(c1cc2occc2c(C(=O)NCc2c(OC)cc(C)[nH]c2=O)c1C)C1CCN(C(C)=O)CC1 [Example 26] on EZH2-A677G (Homo sapiens (Human), UniProt Q15910, A677G): 2.9

Reported EZH2-A677G (Homo sapiens (Human), UniProt Q15910, A677G) IC50 for item CCc1c(N(CC)C2CCC(F)(F)CC2)cc2occc2c1C(=O)NCc1c(OC)cc(C)[nH]c1=O [Example 31] was 2.7

Note to self: IC50 of CCN(c1cc2oc(C3CCN(C)CC3)cc2c(C(=O)NCc2c(C)cc(C)[nH]c2=O)c1C)C1CCOCC1 [Example 15] with EZH2-A677G (Homo sapiens (Human), UniProt Q15910, A677G) was 16

The molecule CCc1c(N(CC)C2CCOCC2)cc2oc(C3CCN(C(C)C)CC3)cc2c1C(=O)NCc1c(OC)cc(C)[nH]c1=O [Example 10] , tested on EZH2-A677G (Homo sapiens (Human), UniProt Q15910, A677G), showed IC50 of 1.7

For CCc1c(N(CC)C2CCOCC2)cc2oc(CN3CCC(F)(F)CC3)cc2c1C(=O)NCc1c(OC)cc(C)[nH]c1=O [Example 7] on EZH2-A677G (Homo sapiens (Human), UniProt Q15910, A677G), measured IC50 was 3.5

Record CCc1c(N(CC)C2CCOCC2)cc2oc(CN3CCN(CC(C)(C)O)CC3)cc2c1C(=O)NCc1c(C)cc(C)[nH]c1=O [Example 11] / EZH2-A677G (Homo sapiens (Human), UniProt Q15910, A677G), IC50 recorded as 5.6

Tested on EZH2-A677G (Homo sapiens (Human), UniProt Q15910, A677G), the item CCN(c1cc2occc2c(C(=O)NCc2c(OC)cc(C)[nH]c2=O)c1Cl)C1CCOCC1 [Example 22] showed IC50 equal to 6.5

CCc1cc(C)[nH]c(=O)c1CNC(=O)c1c(CC)c(N(CC)C2CCOCC2)cc2oc(CN3CCCCC3)cc12 [Example 3] on EZH2-A677G (Homo sapiens (Human), UniProt Q15910, A677G) gives IC50 = 38
